Values compiled from PubChem BioAssay.

Molecular target: Epidermal growth factor receptor (Homo sapiens) (UniProt P00533)
Sequence (P00533 whole entry, looked up): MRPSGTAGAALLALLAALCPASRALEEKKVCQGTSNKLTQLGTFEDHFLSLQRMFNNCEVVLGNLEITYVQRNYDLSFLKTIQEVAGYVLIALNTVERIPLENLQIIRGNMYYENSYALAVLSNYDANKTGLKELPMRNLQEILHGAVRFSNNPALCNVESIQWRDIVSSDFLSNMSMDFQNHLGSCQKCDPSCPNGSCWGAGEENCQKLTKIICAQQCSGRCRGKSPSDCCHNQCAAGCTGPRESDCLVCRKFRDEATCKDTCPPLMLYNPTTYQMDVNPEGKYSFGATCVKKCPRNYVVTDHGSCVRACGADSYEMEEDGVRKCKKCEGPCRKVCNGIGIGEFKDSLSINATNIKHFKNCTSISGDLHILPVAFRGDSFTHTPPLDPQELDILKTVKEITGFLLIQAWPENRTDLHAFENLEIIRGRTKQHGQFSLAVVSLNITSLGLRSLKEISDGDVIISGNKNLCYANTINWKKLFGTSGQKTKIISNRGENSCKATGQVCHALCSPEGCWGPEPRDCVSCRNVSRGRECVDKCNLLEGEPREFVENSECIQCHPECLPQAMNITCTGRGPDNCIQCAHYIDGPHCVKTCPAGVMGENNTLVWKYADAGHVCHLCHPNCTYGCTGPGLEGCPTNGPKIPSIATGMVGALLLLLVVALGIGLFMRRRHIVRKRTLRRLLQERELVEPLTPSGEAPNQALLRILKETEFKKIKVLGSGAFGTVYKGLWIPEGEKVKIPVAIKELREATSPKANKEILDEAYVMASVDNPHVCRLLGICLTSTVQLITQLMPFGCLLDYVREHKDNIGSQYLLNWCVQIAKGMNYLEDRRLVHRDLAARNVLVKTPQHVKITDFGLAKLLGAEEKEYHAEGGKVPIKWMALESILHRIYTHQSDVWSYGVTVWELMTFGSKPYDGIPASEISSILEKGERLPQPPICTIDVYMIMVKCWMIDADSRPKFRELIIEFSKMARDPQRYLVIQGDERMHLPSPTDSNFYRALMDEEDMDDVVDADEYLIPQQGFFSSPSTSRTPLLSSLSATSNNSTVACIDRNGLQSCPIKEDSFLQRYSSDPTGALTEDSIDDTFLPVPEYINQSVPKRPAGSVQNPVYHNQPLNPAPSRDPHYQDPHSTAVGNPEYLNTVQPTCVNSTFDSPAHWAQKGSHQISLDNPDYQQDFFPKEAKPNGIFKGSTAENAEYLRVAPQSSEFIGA
Assay: compounds binding epidermal growth factor receptor – biochemical, small-molecule microarray, 635 nm fluorescence, primary screen (AID 1104);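 also: score merges 667 nm emission intensity with spot signal to noise over triplicate slides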
Details: EGFR binding, higher = more signal
Criterion: composite z-score meeting or surpassing -0.2. Met: Condition met. Not met: Condition not met.

Here's what some known entries look like.
CC[C@@H]1C=C(C(=O)O)[C@H](c2ccccc2)N1S(=O)(=O)c1ccc(C)cc1; Condition not met
CC1CC/C=C\[C@H]2OC34C=CCN(Cc5ccccc5)C(=O)[C@H]3N(C(CO)C(C)C)C(=O)[C@@H]4C2C(=O)O1 (stereo partly drawn); Condition not met
CCOC(=O)C[C@H]1[C@H](OC(=O)c2cc3ccccc3oc2=O)[C@@H](NC(=O)CC(C)C)c2cc(OCCCO)ccc2N1C(=O)c1ccc2ccccc2n1; Condition met
[N-]=[N+]=Nc1ccccc1C[C@]1(C(=O)NCC(O)CO)COC(c2ccc(OCCCO)cc2)=N1 (stereo partly drawn); Condition not met
C=CCOC(=O)[C@@H]1[C@H]2C(=O)O[C@H](c3ccccc3)[C@H](c3ccccc3)N2[C@H](c2ccc(OCCOC(=O)[C@@H]3C[C@@H]4C(=O)N[C@@H](CCCC[N+](C)(C)C)C(=O)N4[C@@H]3c3ccc(O)cc3)cc2)[C@@]12C(=O)Nc1ccc(I)cc12; Condition met

**Q:** Check if composite z-score >= -0.2 (inclusive). Item: N[C@@H](Cc1ccccc1)C(=O)NCc1cn(Cc2ccccc2)nn1
**A:** Condition met

**Q:** Check if composite z-score >= -0.2 (inclusive). Item: CCCCC(CC)C(O)C1C=CC2C(=O)N(C)C(=O)C2N1Nc1ccccc1 (stereo not drawn)
**A:** Condition not met

###

Each entry below carries its recorded z-score.
Test: inhibition of PAO1 biofilm formation – strain PAO1, LB-PBS medium, absorbance 600 nm, primary screen (AID 1176); also: test concentration not given here
Conditions: P. aeruginosa PAO1 growth/biofilm, A600, 12 h; higher = more signal
Returns: the value as a bare number; no unit string appended.

The examples below pair each entry with its known result.
C[C@@H]1NC(=O)[C@@H](Cc2ccccc2)NC(=O)[C@@]23C(=O)N[C@@H](Cc4ccccc4)C2[C@H](C)[C@@]2(C)O[C@H]2C3/C=C/C/C=C\CNC1=O (some centres not stated); 0.413
O=C(Cc1ccccc1)[C@H]1C2C=CCCC(c3ccccc3)=C2CN1Cc1ccccc1 (some centres not stated); 1.44
[N-]=[N+]=Nc1ccccc1[C@@H]1OC(c2ccc(OCCCO)cc2)=N[C@]1(Cc1ccccc1)C(=O)N1CCCCC1; 0.109
O=C1O[C@@H](c2ccccc2)[C@@H](c2ccccc2)N2[C@@H](c3ccc(OCCO)cc3)[C@]3(C(=O)Nc4ccc(C#CC5=CCCCC5)cc43)[C@@H](C(=O)NC[C@H](O)c3ccccc3)[C@H]12; 3.14

Lab note: measured z-score of C=CCC(OC(C)=O)[C@@H]1[C@@H](N(Cc2cc3ccccc3o2)C(=O)Cc2ccc(F)cc2)c2cc(OCCCO)ccc2N1C(=O)Cc1ccc2ccccc2c1 (some centres not stated) was 0.526

Lab note: measured z-score of CCOC(=O)C[C@H]1[C@H](OC(=O)c2cc3ccccc3oc2=O)[C@@H](NC(=O)c2ccc3ccccc3n2)c2cc(OCCCO)ccc2N1C(=O)Cc1ccc(OC)cc1 was -1

Lab note: measured z-score of CC(C)C(CO)N1C(=O)[C@@H]2C3C(=O)OCCC/C=C\[C@H]3OC23C=CCN(c2ccc4ccccc4c2)C(=O)[C@@H]13 (some centres not stated) was -0.292
